Molecular target: human CD33 Y116A (human, UniProt P20138 18-364)
Sequence (P20138 18-364 Y116A limits assumed): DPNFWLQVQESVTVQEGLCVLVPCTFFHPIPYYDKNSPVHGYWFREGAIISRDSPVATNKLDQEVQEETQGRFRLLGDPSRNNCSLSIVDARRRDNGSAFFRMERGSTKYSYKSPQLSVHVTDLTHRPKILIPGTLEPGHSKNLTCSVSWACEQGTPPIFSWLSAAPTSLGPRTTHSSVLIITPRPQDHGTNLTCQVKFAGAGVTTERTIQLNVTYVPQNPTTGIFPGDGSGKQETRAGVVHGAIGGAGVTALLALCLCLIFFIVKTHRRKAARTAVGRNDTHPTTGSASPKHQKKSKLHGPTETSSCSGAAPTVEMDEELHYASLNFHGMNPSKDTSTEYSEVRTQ
Test: flow cytometry on HEK293-T, alanine scan
Each entry below lists one item and its recorded Mean % WT Binding value.
Kindly answer with a numeric value in % WT binding, unit omitted.

Solved entries:
>  <Binder>
Refmab #3 (antibody, V domains shown, The alanine scan used IgG or Fab) VH: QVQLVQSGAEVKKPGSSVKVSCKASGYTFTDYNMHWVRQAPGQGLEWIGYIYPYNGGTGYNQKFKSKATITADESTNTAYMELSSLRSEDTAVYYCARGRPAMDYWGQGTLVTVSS VL: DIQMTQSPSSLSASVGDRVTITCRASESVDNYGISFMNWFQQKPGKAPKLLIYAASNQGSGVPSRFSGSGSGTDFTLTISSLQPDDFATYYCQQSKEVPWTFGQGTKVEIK

>  <Mean % WT Binding (% WT binding)>
5.3

$$$$
>  <Binder>
Refmab #4 (antibody, V domains shown, The alanine scan used IgG or Fab) VH: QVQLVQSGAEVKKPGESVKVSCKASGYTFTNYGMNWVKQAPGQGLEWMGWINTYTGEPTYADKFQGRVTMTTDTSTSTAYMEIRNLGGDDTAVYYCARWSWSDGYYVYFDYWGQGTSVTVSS VL: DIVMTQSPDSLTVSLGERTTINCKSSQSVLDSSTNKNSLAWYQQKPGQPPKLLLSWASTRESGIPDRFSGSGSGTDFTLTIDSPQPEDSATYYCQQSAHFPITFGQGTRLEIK

>  <Mean % WT Binding (% WT binding)>
5.4

$$$$
>  <Binder>
Refmab #2 (antibody, V domains shown, The alanine scan used IgG or Fab) VH: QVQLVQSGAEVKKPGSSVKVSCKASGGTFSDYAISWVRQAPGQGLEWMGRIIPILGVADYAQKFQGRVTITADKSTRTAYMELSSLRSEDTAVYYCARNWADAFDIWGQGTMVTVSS VL: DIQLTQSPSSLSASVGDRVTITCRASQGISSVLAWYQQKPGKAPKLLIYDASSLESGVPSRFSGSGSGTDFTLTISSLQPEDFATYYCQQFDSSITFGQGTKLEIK

>  <Mean % WT Binding (% WT binding)>
0.7

$$$$

So what does the record say about Mean % WT Binding for Refmab #1 (antibody, V domains shown, The alanine scan used IgG or Fab; also called hP67.6) VH: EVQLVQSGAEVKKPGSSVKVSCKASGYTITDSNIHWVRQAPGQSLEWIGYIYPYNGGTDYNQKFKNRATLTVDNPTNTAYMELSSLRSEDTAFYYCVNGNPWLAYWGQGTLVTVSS VL: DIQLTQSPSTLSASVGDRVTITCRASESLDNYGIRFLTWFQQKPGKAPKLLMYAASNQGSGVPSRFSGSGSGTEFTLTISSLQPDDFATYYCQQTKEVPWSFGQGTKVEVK ? 0.9
